Source: ChEMBL document CHEMBL3433997

biological target: Hexose transporter 1 (Plasmodium falciparum) (UniProt O97467); assay: ST_JUDE_LEISH: Cytotoxicity at 2uM final concentration against transgenic Leishmania Mexicana promastigotes LmPfHT that are glucose transport deficient and complemented with the Plasmodium falciparum hexose transporter. Activity is measured by DNA content using SYBR green in vitro; format: functional
Listed here are compounds together with their documented inhibition.
resultType: inhibition (%)

Brc1ccsc1-c1nc(NC2CCN(Cc3ccccc3)CC2)no1 = 5.86
CCCCN1CCN(c2cc(NS(=O)(=O)c3cccc(C(=O)Nc4ccc(C(F)(F)F)cc4)c3)ccc2OC)CC1 = -1.12
CCNc1cc(C(=O)N[C@@H](Cc2cc(F)cc(F)c2)[C@H](O)CNCc2cccc(C(F)(F)F)c2)cc(N2CCCCS2(=O)=O)c1 = -0.7
CN1CCC(C(=O)Nc2ccc(-c3cccc(-c4nc5cc(F)ccc5[nH]4)c3)cc2)CC1 = 9.27
c1ccc2c(c1)ncn2-c1ccnc(Nc2ccncc2)n1 = 6.42
